target: HLA-A*29:02; assay: IEDB peptide-MHC binding, purified MHC/competitive/radioactivity; filed as Kd, often an IC50 or EC50 that approximates it; bounds were set here for any values at or beyond the usual limits of such assays; conditions: source organism: Mammarenavirus guanaritoense
Catalogue of Kd values
readout_label: Kd (µM)

sequence_input: LFHAFFGAL
assayed_system: HLA-A*29:02
unit_spec: µM
reading: 3.65
--
sequence_input: EFSRSILWDY
assayed_system: HLA-A*29:02
unit_spec: µM
reading: 1.13
--
sequence_input: NFGTFYEHI
assayed_system: HLA-A*29:02
unit_spec: µM
reading: 0.4
--
sequence_input: GTDPYRPSF
assayed_system: HLA-A*29:02
unit_spec: µM
reading: 11
--
sequence_input: DLMSMSDGEF
assayed_system: HLA-A*29:02
unit_spec: µM
reading: 8.87
